Biological target: hGLP-1R (Homo sapiens, UniProt P43220)
Sequence (P43220 24-463): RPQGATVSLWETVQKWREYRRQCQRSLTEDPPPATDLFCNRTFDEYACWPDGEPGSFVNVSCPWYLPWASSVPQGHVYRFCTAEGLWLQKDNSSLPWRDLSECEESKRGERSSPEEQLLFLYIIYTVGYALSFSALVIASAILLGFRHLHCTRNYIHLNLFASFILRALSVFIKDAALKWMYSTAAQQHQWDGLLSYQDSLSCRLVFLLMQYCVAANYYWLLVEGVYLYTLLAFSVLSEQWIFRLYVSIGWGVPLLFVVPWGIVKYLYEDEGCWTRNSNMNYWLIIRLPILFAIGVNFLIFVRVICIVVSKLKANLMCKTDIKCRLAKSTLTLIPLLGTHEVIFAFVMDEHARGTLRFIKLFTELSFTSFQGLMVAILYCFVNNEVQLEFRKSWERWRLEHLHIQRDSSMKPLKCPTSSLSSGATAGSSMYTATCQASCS
Assay: cell-based or functional assay

{"binder": "YXQGTFTSDXSRXLDKKAQXAFIEYLIEXGESSGAPPPSGS (Aib, 4Pal, αMeL; lipidated Lys; C-terminal amide; synthetic construct; SITE 2: note = 2-Aminoisobutyric Acid; SITE 10: note = 3-(4-Pyridyl)-L-alanine; SITE 13: note = alpha-methyl-leucine; SITE 17: note = Lysine is chemically modified through conjugation of the epsilon-amino group of the Lysine side chain with (2-[2-(2-Amino-ethoxy)-ethoxy]-acetyl)) [Example 187]", "unit abbrev": "nM", "Relative cAMP EC50, nM (0.1% casein)": 1.11}
{"binder": "YXQGTXTSDXXIXLDXKAQXXFIEXLIEGGPSSGEPPPEEG (synthetic construct; SITE 2: note = 2-Aminoisobutyric Acid; SITE 6: note = alpha-methyl-2-fluoro-L-phenylalanine; SITE 10: note = 3-(4-Pyridyl)-L-alanine; SITE 11: note = alpha-methyl-L-serine; SITE 13: note = alpha-methyl-leucine; SITE 16: note = L-ornithine; SITE 17: note = Lysine is chemically mo) [Example 462]", "unit abbrev": "nM", "Relative cAMP EC50, nM (0.1% casein)": 0.204}
{"binder": "YXQGTXTSDYSIXLDKIAQXAFIKYLEEGGPSSGAPPPS (synthetic construct; SITE 2: note = 2-Aminoisobutyric Acid; SITE 6: note = alpha-methyl-2-fluoro-L-phenylalanine; SITE 13: note = alpha-methyl-leucine; SITE 20: note = 2-Aminoisobutyric Acid; SITE 24: note = Lysine is chemically modified through conjugation of the epsilon-amino group of the Lysine s) [Example 455]", "unit abbrev": "nM", "Relative cAMP EC50, nM (0.1% casein)": 0.49}
{"binder": "YXQGTFTSDFSXXLDKKAQXAFIEYLLEXGHSSGAPPPSGE (Aib, Orn, αMeL; AEEA2-γGlu-C18 diacid acyl; C-terminal amide; synthetic construct; SITE 2: note = 2-Aminoisobutyric Acid; SITE 12: note = L-ornithine; SITE 13: note = alpha-methyl-leucine; SITE 17: note = Lysine is chemically modified through conjugation of the epsilon-amino group of the Lysine side chain with (2-[2-(2-Amino-ethoxy)-ethoxy]-acetyl)2-(gamma-Glu)) [Example 186]", "unit abbrev": "nM", "Relative cAMP EC50, nM (0.1% casein)": 5.26}
{"binder": "YXQGTFTSDFSRXLDKKAQXAFIEYLLEGGESSGAPPPSGS (Aib, alpha-methyl-Leu, lipidated Lys, C-terminal amide; synthetic construct; SITE 2: note = 2-Aminoisobutyric Acid; SITE 13: note = alpha-methyl-leucine; SITE 17: note = Lysine is chemically modified through conjugation of the epsilon-amino group of the Lysine side chain with (2-[2-(2-Amino-ethoxy)-ethoxy]-acetyl)2-(gamma-Glu)-CO-(CH2 )16-CO2H; SITE 20:) [Example 149]", "unit abbrev": "nM", "Relative cAMP EC50, nM (0.1% casein)": 3.85}
{"binder": "YXQGTXTSDXSIXLDXKAQXAFIEYLEEGGPSSGEPPPS (synthetic construct; SITE 2: note = 2-Aminoisobutyric Acid; SITE 6: note = alpha-methyl-2-fluoro-L-phenylalanine; SITE 10: note = 3-(4-Pyridyl)-L-alanine; SITE 13: note = alpha-methyl-leucine; SITE 16: note = L-ornithine; SITE 17: note = Lysine is chemically modified through conjugation of the epsil) [Example 486]", "unit abbrev": "nM", "Relative cAMP EC50, nM (0.1% casein)": 0.375}

The measurements presented in this section are drawn from patent US20240270821A1.
